assayedTarget: T1, J1 DSL-EGF3 soluble recombinant protein (human Jagged 1 amino acids 185-335) (human, UniProt P78504 185-335)
T1 construct: biotinylated in the CD46 ELISA; also called J1-DE3; DSL+EGF1-3
T1 sequence (P78504 185-335, form in doubt): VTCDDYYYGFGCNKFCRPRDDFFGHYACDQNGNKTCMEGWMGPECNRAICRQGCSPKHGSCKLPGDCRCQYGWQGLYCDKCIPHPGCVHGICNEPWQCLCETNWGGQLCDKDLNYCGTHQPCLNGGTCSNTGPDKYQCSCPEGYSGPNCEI
assayComment: affinity to the immunogen J1-DE3; method not stated
Field: label. Allowed values: True (Kd < 1 nM) or False (Kd >= 1 nM).

- binder: "J1-183D variant 7 (antibody, human IgG1, V domains shown, human IgG1; also called J1-183DV7; V7) VH: QVQLVQSGAELKKPGASVKVSCKVSGYAFTDYAIHWVRQAPGQGLEWMGIINTYYGDSKYAQKFQGRVTMTVDTSTSTAYMELSSLRSEDTAVYYCARGYDGFAYWGQGTLVTVSS VL: DIQMTQSPSSLSASVGDRVTITCRTSENIYSYLTWYQQKPGKAPKLLIYNAKTLASGVPSRFSGSGSGTDFTLTISSLQPEDFATYYCQHHYDIPWTFGGGTKLEIKR"
  labelClass: "False"
- binder: "J1-183D (antibody, V domains shown) VH: QVQLQQPGTELVRPGVSVKISCKVSGYAFTDYAIHWIMQSHAKSLEWIGIINTYYGDSKYNQKFKDKATMTVDKSSNTAYMELARLTSEDSAIYYCARGYDGFAYWGQGTLVTVSS VL: DIQLTQSPASLSASVGETVTFTCRTSENIYSYLTWYQQKQGKSPQLLVYNAKILAAGVPSRFSGYGSGTQFSLKINSLQPEDFGTYYCQHHYDIPWTFGGGTKLEIK"
  labelClass: "True"
- binder: "J1-65D variant 14 (antibody, human IgG1, V domains shown, human IgG1; also called J1-65DV14; V14) VH: QVQLVQSGAELKKPGSSVKVSCKASGYTFTDYEMHWVRQAPGQGLEWMGAIQPGGGGTAYAQKFKGRVTLTADKSTSTAYMELSSLRSEDTAVYYCTRRGYDDYPFAYWGQGTLVTVSS VL: DIQMTQSPSSLSASVGDRVTITCRASQGIHNYLAWYQQKPGKAPKLLIYNAKTLADAVPSRFSGSGSGTDYTLTISSLQPEDFATYYCQQFWSAPWTFGQGTKLEIK"
  labelClass: "False"
- binder: "J1-183D variant 16 (antibody, human IgG1, V domains shown, human IgG1; also called J1-183DV16; V16) VH: QVQLVQSGAEVKKPGASVKVSCKASGYTFTDYAIHWVRQAPGQGLEWMGIINTYYGDSKYAQKFQGRVTMTVDTSTSTAYMELSSLRSEDTAVYYCARGYDGFAYWGQGTLVTVSS VL: DIQMTQSPSSLSASVGDRVTITCRTSENIYSYLTWYQQKPGKAPKLLIYHAKILDSGVPSRFSGSGSGTDFTLTISSLQPEDFATYYCQHHYDIPWTFGGGTKLEIKR"
  labelClass: "False"
- binder: "J1-65D variant 7 (antibody, human IgG1, V domains shown, human IgG1; also called J1-65DV7; V7) VH: QVQLVQSGAEVKKPGSSVKVSCKASGYTFTDYEMHWVRQAPGQGLEWMGAIQPGGGGTAYAQKFQGRVTLTADKSTSTAYMELSSLRSEDTAVYYCTRRGYDDYPFAYWGQGTLVTVSS VL: DIQMTQSPSSLSASVGDRVTITCRASGNIHNYLAWYQQKPGKAPKLLIYNAKTLADAVPSRFSGSGSGTDYTLTISSLQPEDFATYYCQHFWSAPWTFGGGTKLEIKR"
  labelClass: "True"

Let us examine a further case.
Query: Below 1 nM on Kd? Entry J1-65D variant 1 (antibody, human IgG1, V domains shown, human IgG1; also called J1-65DV1; V1) VH: QVQLVQSGAELKKPGSSVKVSCKASGYTFTDYEMHWVRQAPGQGLEWMGAIQPGGGGTAYNQKFKGRVTLTADKSTSTAYMELSSLRSEDTAVYYCTRRGYDDYPFAYWGQGTLVTVSS VL: DIQMTQSPSSLSASVGDRVTITCRASGNIHNYLAWYQQKPGKAPKLLIYNAKTLADDVPSRFSGSGSGTDYTLTISSLQPEDFATYYCQHFWSAPWTFGGGTKLEIKR
Reply: True
